# target or system: IL-23 (human, p19/p40 heterodimer) (Homo sapiens, UniProt Q9NPF7;P29460 SEQ:20-189,SEQ:23-328)
# Sequence (Q9NPF7 20-189, chain 1 of 2): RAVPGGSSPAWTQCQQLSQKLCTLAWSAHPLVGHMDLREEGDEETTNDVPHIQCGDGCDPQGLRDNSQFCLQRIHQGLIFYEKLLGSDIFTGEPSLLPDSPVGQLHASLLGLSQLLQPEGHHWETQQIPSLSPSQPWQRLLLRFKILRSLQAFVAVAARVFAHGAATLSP
# Sequence (P29460 23-328, chain 2 of 2): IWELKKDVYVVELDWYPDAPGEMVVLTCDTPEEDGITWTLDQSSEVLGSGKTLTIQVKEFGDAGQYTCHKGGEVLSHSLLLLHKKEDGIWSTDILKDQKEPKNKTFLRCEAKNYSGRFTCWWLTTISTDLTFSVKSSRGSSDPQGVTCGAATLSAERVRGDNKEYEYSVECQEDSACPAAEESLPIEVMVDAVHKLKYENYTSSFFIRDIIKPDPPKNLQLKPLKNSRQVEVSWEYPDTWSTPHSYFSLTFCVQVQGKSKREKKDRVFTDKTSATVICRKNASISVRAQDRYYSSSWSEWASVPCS
# method notes: filter; +tRNA
# experimental context: tags: R&D Systems, carrier free
property: pKd
Would you please state pKd, meaning minus log10 of the concentration in mol/L, as a bare number?

Ask: Could you tell me which pKd is on file for GAUGUUGGCAAGUAAUUGGGGAGUGCGGGCGGGGUUCAUC (mixed, deoxy A,G; 2'-OMe C,U; 3'-idT) [ARC897] ?
Result: 7.03

Ask: # lookup: pKd of GGUGGGGAGUGCGGGCGGGGGGUCGCC (mixed, deoxy A,G; 2'-OMe C,U) [ARC797]
Result: 7.30

Ask: Given the binder GGCAAGGUAAUUGGGGAGUGCGGGCUGGG (mixed, deoxy A,G; 2'-OMe C,U) [ARC893] , what is its reported pKd?
Result: 5.54

Ask: GET /values?readout=pKd&item= GGCAAGGUAAUUGGGUAGUGAGGGCGGGG (mixed, deoxy A,G; 2'-OMe C,U) [ARC892]
Result: 6.59
